Data origin, for the record: ChEMBL document CHEMBL3271944

System: Newcastle disease virus
Assay: Antiviral activity against Newcastle disease virus Miyadera infected in CEF assessed as suppression of <= 1% hemagglutinating activity by tube assay
Type: functional
Conditions: avian paramyxovirus 1, Miyadera
Counter-ions that a name gives are not always drawn.
# MIC annotations

COMPOUND | TGT | UNIT STRING | MIC
CNC(=O)C12CCCC3CC(CCC31)C2 (stereo unspecified) | Newcastle disease virus | µM | 3000
O=C1C2CCC3C(CCCC13)C2 (stereo unspecified) | Newcastle disease virus | µM | 1200
COC(=O)C12CCCC3CC(CCC31)C2 (stereo unspecified) | Newcastle disease virus | µM | 80
OC12CCCC3CC(CCC31)C2 (stereo unspecified) | Newcastle disease virus | µM | 3000
CCCCCCCCOC(=O)C12CCCC3CC(CCC31)C2 (stereo unspecified) | Newcastle disease virus | µM | 330
NC12CC3CC(CC(C3)C1)C2 [AMANTADINE HYDROCHLORIDE] | Newcastle disease virus | µM | 1300
